Target: T1, His6-tagged human KRas Isoform 4B (residues 1-169) (human, UniProt P01116-2 1-169)
T1 construct: Expressed in E. coli BL21(DE3), purified on Ni-NTA; also called KRas protein; WT KRas protein; not shown: His6 tag from the PQE80 vector
Test: B-RAP surface immunofluorescence assay; ligand on barcode via SAC-DNA, KRas titrated 0-400 µM
Ends that are not written are not given here.
TEST READOUT: EC50 (µM)
Expressed in µM, but write only the number.

Which EC50 is listed for HGIVG (triazole (positions not given here); not fully specified (bridges); also: 1,4-triazole macrocycle, ring places not given here, propargylglycine click handle, place not given here, biotinylated (biotin NovaTag resin), site not given here, Second HPLC fraction; also called HGIVG f2) [L1b] ? 1.33

Which EC50 is listed for VEVYP (triazole (positions not given here); not fully specified (bridges); also: 1,4-triazole macrocycle, ring places not given here, propargylglycine click handle, place not given here, biotinylated (biotin NovaTag resin), site not given here, also called VEVYP f2) [L5b] ? 7.8

Which EC50 is listed for VEVYP (triazole (positions not given here); not fully specified (bridges); also: 1,4-triazole macrocycle, ring places not given here, propargylglycine click handle, place not given here, biotinylated (biotin NovaTag resin), site not given here, also called VEVYP f1) [L5a] ? 5.23

Which EC50 is listed for HGIVG (triazole (positions not given here); not fully specified (bridges); also: 1,4-triazole macrocycle, ring places not given here, propargylglycine click handle, place not given here, biotinylated (biotin NovaTag resin), site not given here, It is one of two HPLC fractions of the same mass; also called HGIVG f1) [L1a] ? 0.97

Which EC50 is listed for TDNFY (triazole (positions not given here); not fully specified (bridges); also: macrocycle closed by 1,4-triazole, propargylglycine click handle, other ring residues not given here, also called TDNFY) [L8] ? 2.8

Which EC50 is listed for VTVPY (triazole (positions not given here); not fully specified (bridges); also: macrocycle closed by 1,4-triazole, propargylglycine click handle, other ring residues not given here, also called VTVPY) [L6] ? 18.9

Which EC50 is listed for EGVPV (triazole (positions not given here); not fully specified (bridges); also: macrocycle closed by 1,4-triazole, propargylglycine click handle, other ring residues not given here, also called EGVPV) [L2] ? 3.31
